# protocol.notes: protein stability index of a GFP-peptide fusion (yeast GPS) (PSI 1-4); higher = more stable; sorted into four equal gates, so the index is relative within each strain
# setup.conditions: doa10∆
measurement.kind: protein stability index
Write the number on its own, no unit after it.

{"chain": "YNSVRPFGVSTIFGGVD [PRE10]", "measurement.kind": "protein stability index", "quantitative.result": 2.53}
{"chain": "FKIWHGEINKICMESLF [PCI8]", "measurement.kind": "protein stability index", "quantitative.result": 1.83}
{"chain": "DLTMGQVGERIKQTFKN [RPO21]", "measurement.kind": "protein stability index", "quantitative.result": 3.31}

Please report the measured protein stability index for SKYYPGVIIKVEESGEH [SNU114]
1.96

Return the recorded protein stability index value; entry: VNYRHFKAMEDVIAWKN [ITC1]
2.98

====

# protocol.notes: protein stability index of a GFP-peptide fusion (yeast GPS) (PSI 1-4); higher = more stable; sorted into four equal gates, so the index is relative within each strain
# setup.conditions: doa10∆
measurement.kind: protein stability index
Lab note: record the figure alone, no unit after it.

Would you please look over these solved cases?
{"chain": "HAQSKREGRHSGYGKRK [RPL19A]", "measurement.kind": "protein stability index", "quantitative.result": 2.8}
{"chain": "GCVSYSPAALKQLASLK [YMR153W/NUP53]", "measurement.kind": "protein stability index", "quantitative.result": 1.7}
{"chain": "IEPFECVEISHISKIIG [RPN6]", "measurement.kind": "protein stability index", "quantitative.result": 2.47}

Identify measured protein stability index corresponding to TAIDKNGNITYSEEPRE [FAS2]
2.87

Supply measured protein stability index of KLSQMILDKIFYGVLDQ [RPN6] in your reply.
2.83

Provide only the value of recorded protein stability index for ELVETSEVRKAVSIETA [FAS2]
2.43

====

This listing pairs sequences with measured protein stability index.
# protocol.notes: protein stability index of a GFP-peptide fusion (yeast GPS) (PSI 1-4); higher = more stable; sorted into four equal gates, so the index is relative within each strain
# setup.conditions: doa10∆
Kindly provide the number alone.

Record excerpt, results attached:
{"chain": "LVIGIFKRDLLREKEDK [YJL039C/NUP192]", "quantitative.result": 2.95}
{"chain": "SMKMELLKKELLTIEPK [SMC2]", "quantitative.result": 2.85}
{"chain": "MTTSAVSPTVGKLFSDI [YIL149C/MLP2]", "quantitative.result": 3.1}

Please look at this sequence and report its protein stability index: FFLGYMINRLLLCALDR [RPB2]
1.51

Output protein stability index of IGMSLLMRTFLYTLAQE [SIR3]
1.82

Give the measured protein stability index for SDNKKRSGSNAAASLPS [RPC82]
2.89

Give the value of protein stability index reported for the following: VSFRTHNSHLSLNYKFT [SRP21]
3.01

Supply recorded protein stability index for GKRIAYVYRASKEVRGS [RPL33A] here.
2.8

Answer with the recorded protein stability index of KWDITTRNSNNLAIVEL [BRR2] only.
3.16

// Input: DIDAVNGAVGKREGKTR [ISW2] . Output its protein stability index only.
2.94

Please report the measured protein stability index for LTLYLFQDYLTQQAVNL [IRR1]
2.15

Determine its reported protein stability index: RLFIKPGQKMSLFSHRK [BRN1]
2.74

Please give measured protein stability index of the following entry: QYYVTQHDKMVDKIFEK [SWI1]
2.96

Please indicate protein stability index recorded for QVRKKQIETINFLRLPA [YDL116W/NUP84]
3.07

Please look at this sequence and report its protein stability index: DDMDIDEVNDRSDISDS [PCI8]
3.22

Please give measured protein stability index of the following entry: VAALRFTAGARAKIVKA [RPL18A]
1.31

Please list protein stability index recorded for the sequence KEVSSFLMGIFNSVVNL [MTR3]
2.83

Answer with reported protein stability index of IEEQDKKVQALQSDKNF [ITC1]
3.23

Please supply the value of reported protein stability index for the item VDNIVNKYQYSLKQYAG [SRP68]
3.09

Dear colleague, please send me the reported protein stability index for KSHSTVSSSSRHHRKTE [ISW2] when you can.
2.7

Ref: the supplement of paper PMC9732359
